All figures here come from the Immune Epitope Database (IEDB).

- assay-target: HLA-A*03:01
- measurement-protocol: IEDB peptide-MHC binding, purified MHC/competitive/radioactivity; filed as Kd, often an IC50 or EC50 that approximates it; bounds were set here for any values at or beyond the usual limits of such assays
- setup-conditions: source organism: Influenza A virus
pKd: −log10 of the molar value.
Think of 7 as a floor: if pKd stands on it or above, it is YES; beneath it, NO.

ASCMGLIYNR
NO
KLVGINMSKK
YES
SVQRNLPFER
NO
GTFEFTSFFY
YES
SVQPTFSVQR
NO
KFLPDLYDYK
NO

Continue with the next sequence.
Textbook exercise: given the entry "VLRGFLILGK" , state whether its pKd is greater than or equal to 7.
YES

---

- assay-target: HLA-B*44:02
- measurement-protocol: IEDB peptide-MHC binding, purified MHC/competitive/radioactivity; filed as Kd, often an IC50 or EC50 that approximates it; bounds were set here for any values at or beyond the usual limits of such assays
- setup-conditions: source organism: Influenza A virus
experimental-endpoint: Kd (nM)
Answer with a number only, understood to be in nM.

Consider the reported Kd for these sequences:
SEQAAEAMEV
2640
QEIRTFSFQL
102

Let us examine a further case.
Enter recorded Kd with HLA-B*44:02 for "TEVETYVLSI" here.
6880

---

- assay-target: HLA-A*01:01
- measurement-protocol: IEDB peptide-MHC binding, purified MHC/competitive/radioactivity; filed as Kd, often an IC50 or EC50 that approximates it; bounds were set here for any values at or beyond the usual limits of such assays
- setup-conditions: source organism: Influenza A virus
experimental-endpoint: pKd
Scale: negative log10 of molar concentration, which is what pKd denotes.

Please give measured pKd of the following entry: "YSHGTGTGY"
6.70

---

- assay-target: HLA-A*29:02
- measurement-protocol: IEDB peptide-MHC binding, purified MHC/competitive/radioactivity; filed as Kd, often an IC50 or EC50 that approximates it; bounds were set here for any values at or beyond the usual limits of such assays
- setup-conditions: source organism: Influenza A virus
Items are presented alongside their recorded Kd.
Dear colleague, please return just the value in nM, with no unit written.

FYIQMCTEL
1560
FYRYGFVANF
812

Consider the additional sequence presented here.
For "YSHGTGTGY" , write its Kd.
486

---

- assay-target: HLA-B*51:01
- measurement-protocol: IEDB peptide-MHC binding, purified MHC/competitive/radioactivity; filed as Kd, often an IC50 or EC50 that approximates it; bounds were set here for any values at or beyond the usual limits of such assays
- setup-conditions: source organism: Influenza A virus
experimental-endpoint: Kd

Using the record for "LPRRSGAAGA" , state its measured Kd.
≥ 10 µM

---

- assay-target: HLA-B*40:02
- measurement-protocol: IEDB peptide-MHC binding, purified MHC/competitive/radioactivity; filed as Kd, often an IC50 or EC50 that approximates it; bounds were set here for any values at or beyond the usual limits of such assays
- setup-conditions: source organism: Influenza A virus
experimental-endpoint: Kd (nM)
Form entry: value (nM) — number only.

QEIRTFSFQL
68

Note Kd for the sequence shown: "GERQNATEI"
53

Please give measured Kd of the following entry: "SEQAAEAMEV"
85

Please report the measured Kd for "TEVETYVLSI"
195

---

- assay-target: HLA-B*18:01
- measurement-protocol: IEDB peptide-MHC binding, purified MHC/competitive/radioactivity; filed as Kd, often an IC50 or EC50 that approximates it; bounds were set here for any values at or beyond the usual limits of such assays
- setup-conditions: source organism: Influenza A virus
Entries and their Kd
A number alone suffices; assume nM.

QEIRTFSFQL
515
SEQAAEAMEV
1900

Moving on to another sequence below.
Give reported Kd value for "TEVETYVLSI"
136

---

- assay-target: HLA-A*24:02
- measurement-protocol: IEDB peptide-MHC binding, purified MHC/competitive/radioactivity; filed as Kd, often an IC50 or EC50 that approximates it; bounds were set here for any values at or beyond the usual limits of such assays
- setup-conditions: source organism: Influenza A virus
experimental-endpoint: Kd (nM)
Return type: number; implicit unit nM.

FYRYGFVANF
17

Consider the sequence "FYIQMCTEL" . State its measured Kd.
24

---

- assay-target: HLA-A*11:01
- measurement-protocol: IEDB peptide-MHC binding, purified MHC/competitive/radioactivity; filed as Kd, often an IC50 or EC50 that approximates it; bounds were set here for any values at or beyond the usual limits of such assays
- setup-conditions: source organism: Influenza A virus
experimental-endpoint: pKd
Would you please state pKd, meaning minus log10 of the concentration in mol/L, as a bare number?

Here is how some sequences turned out for pKd.
SVQPTFSVQR
7.43
KLVGINMSKK
6.50
RLFFKCIYRR
6.53
SVQRNLPFER
6.39
KFLPDLYDYK
7.66

Consider the sequence "VLRGFLILGK" . State its measured pKd.
6.34

Give a short answer stating reported pKd for "ASCMGLIYNR" .
7.49

---

- assay-target: HLA-B*45:01
- measurement-protocol: IEDB peptide-MHC binding, purified MHC/competitive/radioactivity; filed as Kd, often an IC50 or EC50 that approximates it; bounds were set here for any values at or beyond the usual limits of such assays
- setup-conditions: source organism: Influenza A virus
The entries below come with measured pKd values attached.
Scale explanation: pKd corresponds to minus log10 of a concentration expressed in moles per litre.

Below are worked cases with known answers.
TEVETYVLSI
6.30
QEIRTFSFQL
6.42
GERQNATEI
6.52

Note: attention shifts to another entry.
# assay system HLA-B*45:01: give pKd of "SEQAAEAMEV"
7.46

---

- assay-target: HLA-A*02:01
- measurement-protocol: IEDB peptide-MHC binding, purified MHC/competitive/radioactivity; filed as Kd, often an IC50 or EC50 that approximates it; bounds were set here for any values at or beyond the usual limits of such assays
- setup-conditions: source organism: Influenza A virus
experimental-endpoint: Kd (nM)
Dear colleague, please return just the value in nM, with no unit written.

CLPACVYGL
79

Item "FQGRGVFEL" : provide Kd
143

Supply Kd value. Item: "FQVDCFLWHV"
4

---

- assay-target: HLA-A*33:01
- measurement-protocol: IEDB peptide-MHC binding, purified MHC/competitive/radioactivity; filed as Kd, often an IC50 or EC50 that approximates it; bounds were set here for any values at or beyond the usual limits of such assays
- setup-conditions: source organism: Influenza A virus
experimental-endpoint: Kd

For the sequence "KLVGINMSKK" , give its reported Kd.
≥ 10 µM

Please indicate Kd recorded for "KFLPDLYDYK"
≥ 10 µM

Please give the documented Kd of "VLRGFLILGK"
≥ 10 µM
